Cited source for all entries: ChEMBL document CHEMBL3853331

# ASSAY INFO: Tmax in Beagle dog plasma at 10 mg/kg, po
# Format: ADME, organism-based, Canis lupus familiaris
PROPERTY LABEL: Tmax (min)
Number in min, nothing else.

For the molecule shown here, O=C(Nc1ccc(F)cc1)N1N=C(c2ccncc2)CC1c1ccc(F)cc1 (stereo unspecified) , give the reported Tmax.
45

* * *

# ASSAYED SYSTEM: Voltage-dependent T-type calcium channel subunit alpha-1H (Homo sapiens, UniProt O95180)
# Sequence (O95180 whole entry): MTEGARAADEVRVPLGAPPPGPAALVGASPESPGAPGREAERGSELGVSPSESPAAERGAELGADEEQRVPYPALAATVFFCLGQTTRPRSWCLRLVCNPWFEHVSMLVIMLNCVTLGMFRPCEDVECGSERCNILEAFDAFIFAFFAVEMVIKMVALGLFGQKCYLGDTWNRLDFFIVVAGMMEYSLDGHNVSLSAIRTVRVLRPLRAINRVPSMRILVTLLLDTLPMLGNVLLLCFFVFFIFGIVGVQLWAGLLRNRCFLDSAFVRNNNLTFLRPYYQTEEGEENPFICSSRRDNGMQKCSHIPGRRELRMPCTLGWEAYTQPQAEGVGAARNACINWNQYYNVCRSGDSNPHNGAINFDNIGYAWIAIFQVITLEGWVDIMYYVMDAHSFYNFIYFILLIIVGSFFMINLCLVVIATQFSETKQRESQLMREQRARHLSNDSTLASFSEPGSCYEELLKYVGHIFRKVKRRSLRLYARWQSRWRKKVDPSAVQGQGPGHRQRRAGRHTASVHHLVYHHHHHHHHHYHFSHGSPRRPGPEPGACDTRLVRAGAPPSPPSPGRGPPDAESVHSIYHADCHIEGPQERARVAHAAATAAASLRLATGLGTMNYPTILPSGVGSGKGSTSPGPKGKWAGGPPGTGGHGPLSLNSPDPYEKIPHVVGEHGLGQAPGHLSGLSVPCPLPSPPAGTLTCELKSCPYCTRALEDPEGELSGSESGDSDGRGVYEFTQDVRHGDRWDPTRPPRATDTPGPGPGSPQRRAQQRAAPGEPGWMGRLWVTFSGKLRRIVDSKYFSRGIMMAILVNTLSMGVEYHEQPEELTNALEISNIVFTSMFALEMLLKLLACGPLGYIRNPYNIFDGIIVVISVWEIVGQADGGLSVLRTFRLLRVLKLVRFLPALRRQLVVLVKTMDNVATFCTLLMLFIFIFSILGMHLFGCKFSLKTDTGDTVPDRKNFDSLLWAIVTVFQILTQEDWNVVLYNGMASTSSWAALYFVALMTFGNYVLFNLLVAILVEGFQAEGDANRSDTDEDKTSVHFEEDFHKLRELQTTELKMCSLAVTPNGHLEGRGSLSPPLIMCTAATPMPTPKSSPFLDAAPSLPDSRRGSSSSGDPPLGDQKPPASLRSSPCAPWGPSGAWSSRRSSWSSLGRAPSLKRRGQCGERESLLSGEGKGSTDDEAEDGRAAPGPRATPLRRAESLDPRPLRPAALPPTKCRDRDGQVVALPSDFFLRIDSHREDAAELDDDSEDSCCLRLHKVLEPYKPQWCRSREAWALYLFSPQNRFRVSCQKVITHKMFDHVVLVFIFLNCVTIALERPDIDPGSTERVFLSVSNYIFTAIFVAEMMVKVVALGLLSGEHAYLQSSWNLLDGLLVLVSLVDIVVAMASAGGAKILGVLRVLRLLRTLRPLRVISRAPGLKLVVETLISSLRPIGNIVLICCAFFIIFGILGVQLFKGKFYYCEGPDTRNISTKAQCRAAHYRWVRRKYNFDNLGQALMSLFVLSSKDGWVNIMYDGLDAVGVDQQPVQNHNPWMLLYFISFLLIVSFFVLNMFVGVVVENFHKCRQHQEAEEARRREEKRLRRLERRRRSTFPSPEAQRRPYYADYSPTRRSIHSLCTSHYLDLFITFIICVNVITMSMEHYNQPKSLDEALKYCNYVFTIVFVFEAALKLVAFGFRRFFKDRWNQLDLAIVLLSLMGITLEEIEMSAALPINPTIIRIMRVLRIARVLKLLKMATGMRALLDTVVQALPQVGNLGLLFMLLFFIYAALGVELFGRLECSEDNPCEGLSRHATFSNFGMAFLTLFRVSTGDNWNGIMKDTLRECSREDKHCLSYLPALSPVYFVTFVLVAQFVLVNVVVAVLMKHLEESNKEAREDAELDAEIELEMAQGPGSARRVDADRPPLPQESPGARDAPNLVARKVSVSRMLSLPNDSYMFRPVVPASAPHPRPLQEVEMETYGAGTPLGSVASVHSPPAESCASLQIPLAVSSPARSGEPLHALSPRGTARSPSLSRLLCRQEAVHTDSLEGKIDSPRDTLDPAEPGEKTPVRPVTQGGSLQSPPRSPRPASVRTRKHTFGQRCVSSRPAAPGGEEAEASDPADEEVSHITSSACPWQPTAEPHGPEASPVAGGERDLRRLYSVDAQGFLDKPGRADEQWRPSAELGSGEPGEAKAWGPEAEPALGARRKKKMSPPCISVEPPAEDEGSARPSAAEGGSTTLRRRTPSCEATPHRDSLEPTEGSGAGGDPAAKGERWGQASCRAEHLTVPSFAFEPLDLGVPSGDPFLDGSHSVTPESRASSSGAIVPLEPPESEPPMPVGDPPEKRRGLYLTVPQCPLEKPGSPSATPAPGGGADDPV
# ASSAY INFO: Inhibition of human T-type calcium channel Cav3.2 expressed in CHO cells assessed as inhibition of calcium tail current at -90 mV holding potential measured after 150 secs by QPatch assay
# Type: cell-based
PROPERTY LABEL: IC50 (nM)
Number in nM, nothing else.

For the molecule shown here, O=C(Nc1ccc(F)cc1)N1N=C(c2ccncc2)CC1c1ccc(F)cc1 (stereo unspecified) , give the reported IC50.
1700
